Listed next: entries and their corresponding melting point.

Some compounds with recorded melting point:
Entry under test: CCCCCC(=NOC)c1cc(C#N)c(=O)[nH]c1C . Its melting point was 159 to 165 °C

Per the records, this compound ( O=C(Cc1ccccc1)C(C[N+](=O)[O-])c1ccccc1 (stereo not given) ) has melting point equal to 99 to 100 °C

What the record says about O=c1[nH]cc(C=Cc2cccnc2)c2ccccc12 : melting point is 222 to 224 °C

Entry COc1ccc2cc([C@H](C)C(=O)NN)ccc2c1 — recorded melting point = 106 to 108 °C

Form: compound = C#CCNC(=O)N1CC(c2ccc(Cl)c(Cl)c2)C1 ; melting point = 106 to 108 °C

For this compound ( CC(=O)OCC1OC(n2cc(C(I)=CI)c(=O)[nH]c2=O)C(OC(C)=O)C1OC(C)=O (stereo not given) ), measured melting point is 83 to 85 °C

---
Per the records, this compound ( COc1ccc2ccccc2c1CONC(C)=O ) has melting point equal to 112 °C

// melting point lookup, compound = COC(=O)C(C)(O[Si](C)(C)C(C)(C)C)c1ccc([N+](=O)[O-])cc1 (stereo not given) , result: 65 to 66 °C

According to the records, this compound CN(C)CC(=O)N(C)c1ccc(OCC(=O)N[C@@H](CC(N)=O)C(=O)N[C@@H](Cc2ccccc2)[C@H](O)C(=O)N2CCC[C@H]2C(=O)NC(C)(C)C)cc1 displays melting point of 129 to 135 °C

// field: melting point; key: Cc1nccc2[nH]c(=O)c(O)cc12 ; value = > 320 °C

So for CC12CCC(C(=O)O)=CC1=CCC1C2CCC2(C)C(C(=O)c3ccccc3)CCC12 (stereo not given) , the logged melting point turned out to be 222 to 225 °C

Entry CCC(C)(C)c1ccc(Oc2ccc(C(F)(F)F)cc2NC(=O)Nc2cc(C(F)(F)F)cc(C(F)(F)F)c2)c(C(=O)O)c1 , melting point reported as 238 to 240 °C

// melting point value for O=C(O)C=CC(=O)c1cc(Cl)c(Cl)cc1Cl : 177 to 181 °C
